- Test system: NOMO1
- experiment: cell viability relative to DMSO control; higher = less cytotoxic
- cond: RPMI 5 mM glucose + 10% FBS; 48 h; 0.569 µM
Task for the reader: assign each of the following compounds its reported cell viability.
Give the value, in units of %, as a plain number.

Prompt: Tell me the measured cell viability of Oc1cccc(-c2nc(N3CCOCC3)c3oc4ncccc4c3n2)c1 , please.
Completion: 104

Prompt: Tell me the measured cell viability of CCC(=C/[C@H](C)C/C=C/C(C)=C/[C@@H](C)C(=O)[C@@H](C)[C@H](O)[C@@H](C)C/C(C)=C/C(=O)O)/C=C/[C@@H]1OC(=O)C=C[C@@H]1C , please.
Completion: 109

Prompt: Tell me the measured cell viability of CC(C)c1ccc(Cn2ccc3c4c(N)nc(NC5CC5)nc4ccc32)cc1 , please.
Completion: 123

Prompt: Tell me the measured cell viability of Cc1cnc(C(=O)O)c[n+]1[O-] , please.
Completion: 101

Prompt: Tell me the measured cell viability of O=C1Nc2ccc(I)cc2/C1=C/c1cc(Br)c(O)c(Br)c1 , please.
Completion: 96.8

Prompt: Tell me the measured cell viability of CN(C)CCN(C)C(=O)c1ccc(NC(=O)Nc2ccc(-c3nc(N4CCOCC4)c4ccn(CC(F)(F)F)c4n3)cc2)cc1 , please.
Completion: 74.5

Prompt: Tell me the measured cell viability of CN1C(=O)C[C@H](C(=O)N[C@@H](Cc2cnc[nH]2)C(=O)N2CCC[C@H]2C(N)=O)NC1=O , please.
Completion: 114

Prompt: Tell me the measured cell viability of CC(C)c1cnn2c(NCc3ccccc3)cc(NCCCCCCN)nc12 , please.
Completion: 112

Prompt: Tell me the measured cell viability of CC1(N2CCC(n3c([C@@H]4CCCNC4)nc4ccccc43)CC2)CCCCCCC1 , please.
Completion: 112

Prompt: Tell me the measured cell viability of CC(C)c1cc(C(=O)N2Cc3ccc(CN4CCN(C)CC4)cc3C2)c(O)cc1O , please.
Completion: 62.2

Prompt: Tell me the measured cell viability of CNCc1ccc(-c2[nH]c3cc(F)cc4c3c2CCNC4=O)cc1 , please.
Completion: 128

Prompt: Tell me the measured cell viability of C/C(O)=C(\C#N)C(=O)Nc1cc(Br)ccc1Br , please.
Completion: 96.2

* * *

- Tested on: SEM cells
- experiment: cell viability relative to DMSO control; higher = less cytotoxic
- cond: RPMI 5 mM glucose + 10% FBS; 48 h; 0.569 µM
endpoint: cell viability
Answer with the figure and its unit, nothing else.

Prompt: API: value(readout=cell viability, system=SEM cells) for record Cn1c(=O)n(-c2ccc(C(C)(C)C#N)cc2)c2c3cc(-c4cnc5ccccc5c4)ccc3ncc21
Completion: 27.7%

Prompt: API: value(readout=cell viability, system=SEM cells) for record COc1cccc([C@@H](C)NCCCc2ccccc2Cl)c1
Completion: 84.2%

Prompt: API: value(readout=cell viability, system=SEM cells) for record c1ccc(CNc2nc(N3CCOc4ccccc43)nc3c2CCCC3)cc1
Completion: 89.5%

Prompt: API: value(readout=cell viability, system=SEM cells) for record [O-]C(=O)C1=C(C(=C(Cl)C(=C1Cl)Cl)Cl)C/2=C/3\C=C(I)/C(=O)/C(=C3OC4=C2C=C(I)C(=C4I)[O-])I
Completion: 115%

Prompt: API: value(readout=cell viability, system=SEM cells) for record CCCCC(C=O)NC(=O)C(CC(C)C)NC(=O)OCc1ccccc1 (configuration not stated)
Completion: 91.8%

Prompt: API: value(readout=cell viability, system=SEM cells) for record COc1ccc([C@@H]2CC(=O)c3c(O)cc(O[C@@H]4O[C@H](CO[C@@H]5O[C@@H](C)[C@H](O)[C@@H](O)[C@H]5O)[C@@H](O)[C@H](O)[C@H]4O)cc3O2)cc1O
Completion: 107%

Prompt: API: value(readout=cell viability, system=SEM cells) for record O=C\1N(N\C=C1[N]2C=CN=N2)C3=NC=NC(=C3)N4CCOCC4
Completion: 13.6%

Prompt: API: value(readout=cell viability, system=SEM cells) for record CCC(=O)N[C@H]1CC[C@H](C(=O)N(C)c2ccc(-c3nc4ccccc4o3)cc2)C1
Completion: 99.9%

Prompt: API: value(readout=cell viability, system=SEM cells) for record CC[C@@]1(O)C(=O)OCC/2=C1/C=C3\N(CC4=CC5=CC(=CC=C5N=C34)O)C2=O
Completion: 9.45%

Prompt: API: value(readout=cell viability, system=SEM cells) for record CCN(C(=O)C/1=C(O)/C2=C(C=CC=C2Cl)N(C)C1=O)C3=CC=CC=C3
Completion: 53.8%

Prompt: API: value(readout=cell viability, system=SEM cells) for record CC[C@H](C)C(=O)O[C@H]1C[C@H](O)\C=C2\C=C/[C@H](C)[C@H](CC[C@@H](O)C[C@@H](O)CC(O)=O)[C@@H]12
Completion: 107%

Prompt: API: value(readout=cell viability, system=SEM cells) for record CN(C)c1nc(Cc2ccc(NC(=O)c3ccc4ccccc4c3)cc2)nc(Cl)c1CC(=O)O
Completion: 110%

Prompt: API: value(readout=cell viability, system=SEM cells) for record O=C(Nc1ncc(SCCN2CCCC2)s1)[C@]1(c2ccc([S+](=O)([O-])C3CC3)cc2)C[C@H]1C1CCCCC1
Completion: 115%

Prompt: API: value(readout=cell viability, system=SEM cells) for record CN1\N=C(N)/C2=C[N]([C@@H]3O[C@H](CO[P](O)(O)=O)[C@@H](O)[C@H]3O)C4=C2C1=NC=N4
Completion: 16.7%

Prompt: API: value(readout=cell viability, system=SEM cells) for record CC1(C)CNc2cc(NC(=O)c3cccnc3NCc3ccncc3)ccc21
Completion: 73.9%

Prompt: API: value(readout=cell viability, system=SEM cells) for record Nc1nc(N)c2nc(-c3cccc(O)c3)c(-c3cccc(O)c3)nc2n1
Completion: 120%

Prompt: API: value(readout=cell viability, system=SEM cells) for record COC/1=C/C=C2\C(=C/C1=O)[C@H](CCC3=CC(=C(OC)C(=C23)OC)OC)NC(C)=O
Completion: 5.66%

Prompt: API: value(readout=cell viability, system=SEM cells) for record C[C@]12CC[C@@H]3c4ccc(O)cc4CC[C@H]3[C@@H]1C[C@@H](O)[C@@H]2O
Completion: 91.8%

Prompt: API: value(readout=cell viability, system=SEM cells) for record CNC[C@H](O)c1cccc(O)c1
Completion: 91.7%

Prompt: API: value(readout=cell viability, system=SEM cells) for record C[C@]12CC[C@H]3[C@@H](C\C=C/4C[C@@H](O)CC[C@]34C)[C@@H]1CCC2=O
Completion: 135%

Prompt: API: value(readout=cell viability, system=SEM cells) for record CN1CCC[C@@H]1CCO[C@](C)(c1ccccc1)c1ccc(Cl)cc1
Completion: 112%

Prompt: API: value(readout=cell viability, system=SEM cells) for record Cc1cnc(C(=O)O)c[n+]1[O-]
Completion: 101%
